This collection of values is drawn from PubChem BioAssay (NCI).

Hi there, I'd appreciate the recorded TGI for every entry that follows.
- Tested on: NCI-H226 lung
- methodDescription: NCI tumour cell line growth inhibition, 48 h
Give bare numbers, in µM.

Known results for molecules:
{"molecule": "COCOC1/C=C/CCCC#C[C@H](C)C(=O)CC1 (some centres undefined)", "TGI (µM)": 35}
{"molecule": "Cc1nc2c(nc1Cl)nc(Oc1ccc(Cl)cc1)c1ccccc12", "TGI (µM)": 79.9}

Value sought for every listed molecule: TGI.
1. CCOc1cccc(/C=N/NC(=O)c2ccccc2Nc2ccnc(C(F)(F)F)c2)c1O
2. N#Cc1ccc(C#Cc2ccccc2C#CCCCCO)cc1
3. CCNCCNc1cc(-c2ccc(C(=O)OC)cc2)c(C#N)c2nc3ccccc3n12
4. Cc1c(C(=O)N/N=C/c2ccc(Cl)cc2)nnn1-c1ccnc2c(C(F)(F)F)cccc12
5. CCCCCCCCCCCC(=O)CC(=O)c1c(O)cccc1O
6. Cc1ccc(CS/C(=C\c2ccc([N+](=O)[O-])cc2)C(=O)c2ccc(F)cc2)cc1

[A]
19.1
38.6
8.39
8.32
32.1
15

Value sought for every listed molecule: TGI.
1. CC(C)(C)c1ccc2c(c1)CNCCNCc1cc(C(C)(C)C)ccc1OCC1(CO2)COc2ccc(C(C)(C)C)cc2CNCCNCc2cc(C(C)(C)C)ccc2OC1
2. CC1=C(C(=O)Nc2ccc([N+](=O)[O-])cc2)C(c2ccc(N(C)C)cc2)C(C(=O)Nc2ccc([N+](=O)[O-])cc2)=C(C)N1
3. O=C1c2c(c3c4ccccc4n(CCCCCCBr)c3c3[nH]c4ccccc4c23)C(=O)N1O

[A]
1. 2.26
2. 42.3
3. 16.4

====

- Tested on: LXFL 529 NSCLC
- methodDescription: NCI tumour cell line growth inhibition, 48 h
reportedProperty: TGI

{"compound": "N=C1CSC2=NC3=C(CCC/C3=C\\c3ccccc3)C(c3ccccc3)N12 (stereo unspecified)", "targetEntity": "LXFL 529 NSCLC", "TGI": "17 µM"}
{"compound": "N.N.N.O=[N+]([O-])[O-].O=[N+]([O-])[O-].O=[N+]([O-])[O-].O=[N+]([O-])[O-].[Co+3]", "targetEntity": "LXFL 529 NSCLC", "TGI": "> 100 µM"}
{"compound": "C=C(C(=O)C(=O)Oc1ccc(Cl)cc1)C(=O)c1ccc(C)cc1", "targetEntity": "LXFL 529 NSCLC", "TGI": "80 µM"}
{"compound": "COc1ccc2cc1Oc1ccc(cc1)CC1c3cc(c(OC)cc3CCN1C)Oc1c3c(cc4c1C(C2)N(C)CC4)OCO3 (stereo unspecified)", "targetEntity": "LXFL 529 NSCLC", "TGI": "25.6 µM"}
{"compound": "COC(=O)C[C@H]1CCC2(OCCO2)[C@]1(C)C(=O)OC", "targetEntity": "LXFL 529 NSCLC", "TGI": "> 100 µM"}
{"compound": "CN(C)CCC(=O)N1C/C(=C/c2ccccc2)C(=O)/C(=C\\c2ccccc2)C1", "targetEntity": "LXFL 529 NSCLC", "TGI": "5.51 µM"}
{"compound": "CCCCCCCCCC[C@@H](O)[C@@H]1CC[C@H]([C@H]2CC[C@@H]([C@@H](O)CCCCCCCCCC[C@H]3CC(CC(C)=O)C(=O)O3)O2)O1 (stereo partly specified)", "targetEntity": "LXFL 529 NSCLC", "TGI": "19.5 µM"}
{"compound": "COC(=O)C(=O)C(C(=O)C=C(C)C)C(=O)C(=O)Nc1cc(C(F)(F)F)ccc1Cl (stereo unspecified)", "targetEntity": "LXFL 529 NSCLC", "TGI": "> 100 µM"}
{"compound": "CC1=C(C(=O)Nc2ccc([N+](=O)[O-])cc2)C(c2ccc(N(C)C)cc2)C(C(=O)Nc2ccc([N+](=O)[O-])cc2)=C(C)N1", "targetEntity": "LXFL 529 NSCLC", "TGI": "71.4 µM"}
{"compound": "N#C/C(=C/c1ccsc1)C(=O)c1ccccc1", "targetEntity": "LXFL 529 NSCLC", "TGI": "> 100 µM"}

Value sought for every listed compound: TGI.
1. O=C(O)CC/C(=N\Nc1nsc2ccccc12)c1ccccc1
2. CCN(CC)c1c(C(=O)/C=C/c2ccccc2)c(-c2ccccc2)nn(C)c1=O
3. COc1ccccc1C1C(C(=O)Nc2ccccc2)=C(C)NC(C)=C1C(=O)Nc1ccccc1
4. Cc1ccc(S(=O)(=O)C(CC(=O)N2CCCC2)C(=O)c2ccccc2)cc1 (stereo unspecified)
5. O=C1C(Cl)=C(N2CCN(C3=C(Cl)C(=O)c4ccccc4C3=O)CC2)C(=O)c2ccccc21
6. COC(=O)C(CCC#N)(CCC#N)C(=O)OC

[A]
> 100 µM
> 100 µM
> 100 µM
> 100 µM
0.793 µM
> 100 µM
